For each record, write down the corresponding pIC50.
Test system: JAK1-dependent STAT6 phosphorylation downstream of IL-13 stimulation in TF-1 human erythroleukemia cells
Test: cells
Details: TF-1, read-out: IL-13-pSTAT6 IC50
Numbers only, as −log10 of the molar value.

Recorded results for 5 molecules are shown here.
{"columns": ["Molecule", "Property Name", "Recorded Measurement"],
 "data": [
  ["CCc1ccc(C2(O)CCN(c3cccn4nc(Nc5ccc(C(=O)N(C)C6CCN(C)CC6)cc5)nc34)CC2)cc1", "pIC50", 6.85],
  ["CN1CCC(N(C)C(=O)c2ccc(Nc3nc4c(N5CCC(CCO)(c6ccc(Cl)cc6)CC5)cccn4n3)cc2)CC1", "pIC50", 7.57],
  ["CN1CCN(C(=O)C2COCCN2C(=O)c2ccc(Nc3nc4c(C5=CCN(C(=O)CCC(F)(F)F)CC5)cccn4n3)cc2)CC1 (centres unmarked)", "pIC50", 7.01],
  ["CN1CCC(N(C)C(=O)c2ccc(Nc3nc4c(C5=CCN(C(=O)C6CCCCC6)CC5)cccn4n3)cc2)CC1", "pIC50", 7.46],
  ["CC(C)CCC(=O)N1CC=C(c2cccn3nc(Nc4ccc(C(=O)N(C)C5CCN(C)CC5)cc4)nc23)CC1", "pIC50", 7.58]
]}

Hey, can you go through the list below and give me pIC50 for every item?
1. CN1CCC2(CC1)CN(C(=O)c1ccc(Nc3nc4c(N5CCC(O)(c6ccc(Cl)cc6)CC5)cccn4n3)cc1)C2
2. CN1CCC(N(C)C(=O)c2ccc(Nc3nc4c(C5=CCN(C(=O)OCC(F)F)CC5)cccn4n3)cc2)CC1
3. CCOC(=O)N1CC=C(c2cccn3nc(Nc4ccc(C(=O)N(C)CCN)cc4)nc23)CC1
4. Cc1ccnc(CNC(=O)c2ccc(Nc3nc4c(C5=CCN(C(=O)CCC(F)(F)F)CC5)cccn4n3)cc2)c1
5. CN(C)C1CCN(C(=O)c2ccc(Nc3nc4c(N5CCC(O)(c6ccc(Cl)cc6)CC5)cccn4n3)cc2)CC1

[7.96, 7.95, 7.20, 8.28, 7.67]

Hey, can you go through the list below and give me pIC50 for every item?
1. CN1CCC(N(C)C(=O)c2ccc(Nc3nc4c(N5CCC(CC(N)=O)(c6ccccc6)CC5)cccn4n3)cc2)CC1
2. NCC1CCCN1C(=O)c1ccc(Nc2nc3c(C4=CCN(C(=O)CCC(F)(F)F)CC4)cccn3n2)cc1 (centres unmarked)
3. CCN(CC)C1CCN(C(=O)c2ccc(Nc3nc4c(C5=CCN(C(=O)CCC(F)(F)F)CC5)cccn4n3)cc2)C1 (centres unmarked)
4. CC(C)N1CCC(N(C)C(=O)c2ccc(Nc3nc4c(C5=CCN(C(=O)CCC(F)(F)F)CC5)cccn4n3)cc2)CC1

[6.60, 7.10, 8.15, 7.87]

----------
System: JAK1-dependent STAT6 phosphorylation downstream of IL-13 stimulation in TF-1 human erythroleukemia cells
Test: cells
Details: TF-1, read-out: IL-13-pSTAT6 IC50
# note: boundary value 0.04 µM maps to not satisfied; IC50 below it maps to satisfied

{"columns": ["Compound", "Class"],
 "data": [
  ["O=C(NCC1CCCN1)c1ccc(Nc2nc3c(C4=CCN(C(=O)CCC(F)(F)F)CC4)cccn3n2)cc1 (stereo not shown)", "not satisfied"],
  ["O=C(CCC(F)(F)F)N1CC=C(c2cccn3nc(Nc4ccc(C(=O)N5CCN(C6CCC6)CC5)cc4)nc23)CC1", "satisfied"],
  ["O=C(CCC(F)(F)F)N1CC=C(c2cccn3nc(Nc4ccc(C(=O)N5CCC6(CC5)CNC6)cc4)nc23)CC1", "not satisfied"],
  ["CN1CCOC2(C1)CN(C(=O)c1ccc(Nc3nc4c(C5=CCN(C(=O)CCC(F)(F)F)CC5)cccn4n3)cc1)C2", "satisfied"],
  ["O=C(NC1CCNC1)c1ccc(Nc2nc3c(N4CCC(O)(c5ccc(Cl)cc5)CC4)cccn3n2)cc1 (stereo not shown)", "not satisfied"]
]}

is_below(IC50, 0.04 µM) for O=C(CCC(F)(F)F)N1CC=C(c2cccn3nc(Nc4ccc(C(=O)N5CCCC6(CCNCC6)C5)cc4)nc23)CC1 ?
not satisfied

----------
For each record, write down the corresponding IC50.
System: JAK1-dependent STAT6 phosphorylation downstream of IL-13 stimulation in TF-1 human erythroleukemia cells
Experiment: cells
Settings: TF-1, read-out: IL-13-pSTAT6 IC50
One number for each entry, in nM.

{"columns": ["Compound", "IC50 [nM]"],
 "data": [
  ["CN(Cc1ccc2ncccc2c1)C(=O)c1ccc(Nc2nc3c(C4=CCN(C(=O)CCC(F)(F)F)CC4)cccn3n2)cc1", 27.6],
  ["CCOC(=O)N1CC=C(c2cccn3nc(Nc4ccc(C(=O)NCCCN5CCN(C)CC5)cc4)nc23)CC1", 22.3],
  ["CCOC(=O)N1CC=C(c2cccn3nc(Nc4ccc(C(=O)NCCN5CC(C)OC(C)C5)cc4)nc23)CC1 (stereo not shown)", 15.8],
  ["CCOC(=O)N1CC=C(c2cccn3nc(Nc4ccc(C(=O)N5CC(CN)C5)cc4)nc23)CC1", 187],
  ["O=C(CCC(F)(F)F)N1CC=C(c2cccn3nc(Nc4ccc(C(=O)N5CCNCC5)cc4)nc23)CC1", 37.7],
  ["CCOC(=O)N1CC=C(c2cccn3nc(Nc4ccc(C(=O)NCC5CCNC5)cc4)nc23)CC1 (stereo not shown)", 383]
]}

Next up:
# IC50 of CN1CCC(N(C)C(=O)c2ccc(Nc3nc4c(N5CCN(C(=O)N6CC(C)(C)C6)CC5)cccn4n3)cc2)CC1 = 916

----------
System: JAK1-dependent STAT6 phosphorylation downstream of IL-13 stimulation in TF-1 human erythroleukemia cells
Assay: cells
Details: TF-1, read-out: IL-13-pSTAT6 IC50
pIC50: −log10 of the molar value.
Assign y whenever pIC50 does not fall below 8; assign n whenever it does.

{"columns": ["Molecule", "Class"],
 "data": [
  ["CCOC(=O)N1CC=C(c2cccn3nc(Nc4ccc(C(=O)N5CCCC5c5ccc(C)cn5)cc4)nc23)CC1 (stereo not shown) [Example 2-67]", "n"],
  ["CN1CCC(N(C)C(=O)c2ccc(Nc3nc4c(C5=CCN(C(=O)N6CC7(COC7)C6)CC5)cccn4n3)cc2)CC1 [Example 2-286]", "n"],
  ["CN1CCCC(CNC(=O)c2ccc(Nc3nc4c(C5=CCN(C(=O)CCC(F)(F)F)CC5)cccn4n3)cc2)C1 (stereo not shown) [Example 2-337]", "n"],
  ["O=C(NCCc1cccnc1)c1ccc(Nc2nc3c(C4=CCN(C(=O)CCC(F)(F)F)CC4)cccn3n2)cc1 [Example 2-220]", "y"],
  ["CC(=O)N1CC2(C1)CN(C(=O)c1ccc(Nc3nc4c(C5=CCN(C(=O)CCC(F)(F)F)CC5)cccn4n3)cc1)C2 [Example 2-204]", "n"]
]}

Decide: is the reported value of pIC50 for CN1CCC(N(C)C(=O)c2ccc(Nc3nc4c(N5CCC(CC(=O)O)(c6ccc(Cl)cc6)CC5)cccn4n3)cc2)CC1 [Example 1-301] equal to or greater than 8?
n

----------
System: JAK1-dependent STAT6 phosphorylation downstream of IL-13 stimulation in TF-1 human erythroleukemia cells
Assay: cells
Conditions: TF-1, read-out: IL-13-pSTAT6 IC50
For each record, write down the corresponding pIC50.
One number for each entry, as −log10 of the molar value.

{"columns": ["Molecule", "pIC50"],
 "data": [
  ["CC(CC(=O)N1CC=C(c2cccn3nc(Nc4ccc(C(=O)N(C)C5CCN(C)CC5)cc4)nc23)CC1)C(F)(F)F (stereo not drawn) [Example 2-43]", 7.56],
  ["CN1CCN(C(=O)C2CN(C(=O)c3ccc(Nc4nc5c(N6CCC(O)(c7ccc(Cl)cc7)CC6)cccn5n4)cc3)C2)CC1 [Example 1-165]", 7.60]
]}

Next up:
# pIC50 of O=C(c1ccc(Nc2nc3c(N4CCC(O)(c5ccc(Cl)cc5)CC4)cccn3n2)cc1)N1CCC2(CCNCC2)CC1 [Example 1-218] = 6.78

----------
Biological target: isolated recombinant JAK2 kinase domain (Homo sapiens (Human))
Sequence (O60674 849-1124): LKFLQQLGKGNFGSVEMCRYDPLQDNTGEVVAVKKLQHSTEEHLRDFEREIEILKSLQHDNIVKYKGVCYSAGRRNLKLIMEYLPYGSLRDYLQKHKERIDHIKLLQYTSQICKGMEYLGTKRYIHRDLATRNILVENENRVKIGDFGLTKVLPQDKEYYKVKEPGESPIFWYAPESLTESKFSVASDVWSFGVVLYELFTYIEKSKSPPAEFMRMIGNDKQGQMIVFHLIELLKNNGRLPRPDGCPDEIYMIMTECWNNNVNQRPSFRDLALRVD
Assay: biochemical
Counter-ions that a name gives are not always drawn.
Property Name: pKi
Numbers only, as −log10 of the molar value.

{"columns": ["Compound", "Target Entity", "Recorded Measurement"],
 "data": [
  ["CC(=O)NC1CCN(c2cccn3nc(Nc4ccc(C(=O)N(C)C5CCN(C)CC5)cc4)nc23)CC1 [Example 1-9, hydrochloride]", "isolated recombinant JAK2 kinase domain (Homo sapiens (Human))", 7.20],
  ["CN1CCC(N(C)C(=O)c2ccc(Nc3nc4c(N5C[C@@H]6C[C@](O)(c7ccccc7)C[C@@H]6C5)cccn4n3)cc2)CC1", "isolated recombinant JAK2 kinase domain (Homo sapiens (Human))", 7.73],
  ["CN1CCC(N(C)C(=O)c2ccc(Nc3nc4c(N5CCCCC5)cccn4n3)cc2)CC1 [Example 1-12, dihydrochloride]", "isolated recombinant JAK2 kinase domain (Homo sapiens (Human))", 7.11],
  ["CC(=O)N1CCN(c2cccn3nc(Nc4ccc(C(=O)N(C)C5CCN(C)CC5)cc4)nc23)CC1", "isolated recombinant JAK2 kinase domain (Homo sapiens (Human))", 7.13],
  ["CC(C)c1ccc(C2(O)CCN(c3cccn4nc(Nc5ccc(C(=O)N(C)C6CCN(C)CC6)cc5)nc34)CC2)cc1", "isolated recombinant JAK2 kinase domain (Homo sapiens (Human))", 8.25],
  ["CN1CCC(N(C)C(=O)c2ccc(Nc3nc4c(N5CCC(O)(c6ccc(F)cc6)CC5)cccn4n3)cc2)CC1", "isolated recombinant JAK2 kinase domain (Homo sapiens (Human))", 8.17],
  ["CN1CCC(N(C)C(=O)c2ccc(Nc3nc4c(N5CCC(C(C)(C)O)CC5)cccn4n3)cc2)CC1", "isolated recombinant JAK2 kinase domain (Homo sapiens (Human))", 7.32],
  ["CNC1CN(C(=O)c2ccc(Nc3nc4c(N5CCC(CO)(c6ccc(Cl)cc6)CC5)cccn4n3)cc2)C1", "isolated recombinant JAK2 kinase domain (Homo sapiens (Human))", 9.82],
  ["CN1CCC(N(C)C(=O)c2ccc(Nc3nc4c(N5CCC(C#N)CC5)cccn4n3)cc2)CC1", "isolated recombinant JAK2 kinase domain (Homo sapiens (Human))", 8.20],
  ["NCCNC(=O)c1ccc(Nc2nc3c(N4CCC(O)(c5ccc(Cl)cc5)CC4)cccn3n2)cc1", "isolated recombinant JAK2 kinase domain (Homo sapiens (Human))", 9.04]
]}

Hey, can you go through the list below and give me pKi for every item?
1. CN1CCC(N(C)C(=O)c2ccc(Nc3nc4c(N5CCN(c6ccccc6)CC5)cccn4n3)cc2)CC1
2. CN1CCC(N(C)C(=O)c2ccc(Nc3nc4c(N5CCC(O)(c6cccnc6)CC5)cccn4n3)cc2)CC1
3. O=C(c1ccc(Nc2nc3c(N4CCC(O)(c5ccc(Cl)cc5)CC4)cccn3n2)cc1)N1CCNCC1

7.88
7.50
8.82
